- testTarget: T1, HLA DP molecule DPB1*0401 (human)
- T1 chain 1: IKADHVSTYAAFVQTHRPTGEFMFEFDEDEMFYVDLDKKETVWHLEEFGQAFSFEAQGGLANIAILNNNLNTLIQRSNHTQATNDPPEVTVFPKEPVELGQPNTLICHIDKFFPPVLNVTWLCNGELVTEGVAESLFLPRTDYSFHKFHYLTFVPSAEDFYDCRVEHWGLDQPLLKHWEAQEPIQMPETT
- T1 chain 2: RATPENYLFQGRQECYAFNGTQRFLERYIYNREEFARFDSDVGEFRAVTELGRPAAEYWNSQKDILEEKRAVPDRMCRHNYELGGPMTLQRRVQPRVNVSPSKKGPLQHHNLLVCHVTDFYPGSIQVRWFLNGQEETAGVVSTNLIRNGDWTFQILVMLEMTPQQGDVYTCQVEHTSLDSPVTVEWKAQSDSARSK
- assayInfo: competition vs radiolabeled peptide, purified HLA-DP
pIC50: −log10 of the molar value.
Label scheme for pIC50: lower than 6 is f, 6 and above is t.

> print(dat)
                                     binder  classlabel
1  AETCPIFYDVFFAVA [Fel d 1 2 peptide, position 21, AETCPIFYDVFFAVA (Peptide ID 3324.1056)]           t
2  GSCWAFSGVAATESA [Der f 1 peptide, position 131, GSCWAFSGVAATESA (Peptide ID 3324.0670)]           f
3  IFYDVFFAVANGNEL [Fel d 1 2 peptide, position 26, IFYDVFFAVANGNEL (Peptide ID 3324.1052)]           t
4  DEYVEQVAQYKALPV [Fel d 1 1 peptide, position 41, DEYVEQVAQYKALPV (Peptide ID 3324.1049)]           t
5  NALSVLDKIYTSPLC [Fel d 1 1 peptide, position 78, NALSVLDKIYTSPLC (Peptide ID 3324.1050)]           t

-- ask Is the recorded value of pIC50 equal to or greater than 6 for this binder? NGNELLLDLSLTKVN [Fel d 1 2 peptide, position 36, NGNELLLDLSLTKVN (Peptide ID 3324.1055)]
-- reply t

meta.source: patent US20150004189A1
